Reported values of growth for individual entries
Test system: MOLT-4 leukemia
Assay comment: NCI-60 one-dose screen, 48 h (100 = growth as untreated, 0 = no growth, -100 = all killed)
Applied conditions: 10 µM unless noted
About 83,000 compounds went through this panel and 20% of them were active in at least one assay; those are over-represented in the sample as a whole.
# value in %; strip the unit string

Solved entries (count: 4):
>>> df
                            molecule_smiles  quantitative_result
0  Cc1c(F)cc(C(N)=O)cc1NCC(=O)Nc1ccc([N+](=O)[O-])cc1                  105
1  CC(C)c1ccc(NCc2cn(-c3ccc(C(=O)O)cc3)nc2-c2cc(C(F)(F)F)cc(C(F)(F)F)c2)cc1                 71.6
2  C=C(C)[C@@H]1CC[C@]2(C(=O)NCCCCCN(CCC#N)CCC#N)CC[C@]3(C)[C@H](CC[C@@H]4[C@@]5(C)CCC(=O)C(C)(C)[C@@H]5CC[C@]43C)[C@@H]12                   92
3  NC(N)=Nc1ccc(Oc2cccc(Nc3ccc(Br)c(C(F)(F)F)c3)c2)cc1                 9.79

Proceeding to the next molecule to report its growth.
## Input Consider the molecule "CC[C@H](CO)Nc1ccc2ncc(C#Cc3cncc(C(=O)Nc4ccc(CN5CCN(C)CC5)c(C(F)(F)F)c4)c3)n2n1" and give its recorded growth.
## Output -3.11

----------
Test system: SN12C renal
Assay comment: NCI-60 one-dose screen, 48 h
Applied conditions: 10 µM unless noted
This is part of a sample that, as a whole, favours compounds with a hit. Of some 83,000 tested, about 20% had one in any assay. Calls of active or inactive are those of the source. Rule for the calls: active = growth percent below 10; inactive = the rest.
Field 'call' accepts active, inactive

Would you please look over these solved cases?
>>> print(df.to_string())
                                   compound     class
0  O=C(CN1CCN(c2cc(=O)n(-c3ccccc3)c3ccccc23)CC1)Nc1cccc(C(F)(F)F)c1  inactive
1  CCC(CC)N1C(=O)/C(=c2\sc3n(c2=O)NC2C(N=3)N(CC)C(=O)N2CC)c2ccccc21 (centres undefined)  inactive
2  N#Cc1cnc2ccc(-c3cnc4[nH]ncc4c3)cc2c1N1CCc2cc(F)c(Cl)cc21    active
3  O=S(=O)(NCCCNc1nccc(-n2cnc3ccccc32)n1)c1ccc(C(F)(F)F)cc1  inactive
4  CNc1ncc2cc(-c3ccc(-c4ncccc4F)cc3Cl)c(=O)n(CC3OCC(N)CO3)c2n1 (centres undefined)  inactive
5  C#C[C@]1(O)CC[C@H]2[C@@H]3CC=C4c5sc(-c6cccc(O)c6)nc5CC[C@]4(C)[C@H]3CC[C@@]21C    active

## Input How was "O=C(Nc1nonc1-c1ccccc1)c1ccc(C(F)(F)F)cc1" classified in this test?
## Output inactive

## Input How was "CC1=NC2=NN3C(=NN2C(c2ccccc2)=C1)N=NC(c1ccc(Br)cc1)=C3c1ccc(Br)cc1" classified in this test?
## Output inactive

## Input How was "CNC(=O)c1cc(-c2ccc(NS(=O)(=O)c3ccc(C)cc3)cc2)nc2cccnc12" classified in this test?
## Output inactive

----------
Reported values of growth for individual entries
System: OVCAR-4 ovarian
Assay comment: NCI-60 one-dose screen, 48 h (100 = growth as untreated, 0 = no growth, -100 = all killed)
Applied conditions: 10 µM unless noted
Protocol: Growth inhibition of the OVCAR-4 human tumor cell line is measured as a screen for anti-cancer activity. Cells are grown in 96 well plates and exposed to the test compound for 48 hours. Compounds are tested at a single concentration, which is 10^-5 M for most compounds. The reported endpoint is percent growth (GI% or GIPRCNT), where numbers from 0 - 100% represent growth inhibition, and numbers from -100% - 0 represent cell death. For example, a value of 40 represents 60% growth inhibition. […]
This is part of a sample that, as a whole, favours compounds with a hit. Of some 83,000 tested, about 20% had one in any assay.
# value in %; strip the unit string

Solved entries (count: 2):
                                   compound  quantitative_result
0  COc1ccc(NC(=O)CSc2nnc(-c3ccc4nc(-c5ccc(OC)c(OC)c5)[nH]c4c3)o2)cc1OC                  106
1  COc1ccc(Oc2ccc(/C=N/NC(=O)CSc3nc4ccccc4c(=O)n3-c3ccc(Cl)cc3)cc2)cc1                 72.5

Proceeding to the next compound to report its growth.
## Input Consider the compound CCCn1cnc2c(c1=N)C(c1ccc(F)cc1)c1sc3c(C)cccc3c1O2 (centres undefined) and give its recorded growth.
## Output 35.8

The measured values listed here are drawn from PubChem BioAssay (NCI).
